Values compiled from the supplement of paper PMC12042874.

- methodNotes: amyloid nucleation score (Sup35N fusion, yeast selection) (log enrichment); library NNK1; higher = more nucleation; inactive = no reads after selection;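 also: zero at mode of non-aggregating sequences after 7 days selection at 30°C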
parameterMeasured: amyloid nucleation score

1. GYSCRVIWNTNWTALFT
inactive
2. KLLVLLNN
inactive
3. WNSSFLHRLWEGSNLSARCC
inactive

====

- methodNotes: amyloid nucleation score (Sup35N fusion, yeast selection) (log enrichment); library NNK2; higher = more nucleation; inactive = no reads after selection
parameterMeasured: amyloid nucleation score

Reference set, count: 4
1) RCNWTSNFFQYMYKNRPNNG
inactive
2) SAHLYALGNSRHFIYVPVEL
inactive
3) AYHDYLSRGGTHVVVCYYLS
inactive
4) HCLFSGYYLKLN
inactive

`NKSSLRVCRPLSWNMSMVSN` yielded amyloid nucleation score of 0.593
